system: Human immunodeficiency virus type 1 integrase (Human immunodeficiency virus 1), Q7ZJM1 [Q148K]; test: Inhibition of pseudotype HIV1 integrase Q148K mutant strand transfer activity in HIV1 infected human CIP4 cells assessed as ratio of IC50 for pseudotype HIV1 integrase Q148K mutant strand transfer activity to IC50 for pseudotype HIV1 integrase strand transfer activity after 2 days by luciferase reporter gene assay; format: cell-based
Would you please tag the item T when its Ratio IC50 is 1 or above, and F when it is below?

Solved entries:
| molecule_smiles | discrete_label |
| --- | --- |
| NC(=O)c1c2c(c(O)c3ncc(Cc4cccc(Cl)c4F)cc13)C(=O)N1CCCC[C@H]21 | T |
| NC(=O)c1c2c(c(O)c3ncc(Cc4cccc(Cl)c4F)cc13)C(=O)N1CCC[C@H]1C2 | F |
| NC(=O)c1c2c(c(O)c3ncc(Cc4cccc(Cl)c4F)cc13)C(=O)N1CCC[C@@H]1C2 | F |
| N#Cc1c2c(c(O)c3ncc(Cc4cccc(Cl)c4F)cc13)C(=O)N1CCCC[C@H]21 | T |
| N#Cc1c2c(c(O)c3ncc(Cc4cccc(Cl)c4F)cc13)C(=O)N1CCC[C@H]21 | T |

Input line: Tell me whether Ratio IC50 is at least 1 here: N#Cc1c2c(c(O)c3ncc(Cc4cccc(Cl)c4F)cc13)C(=O)N1CCCC[C@@H]21
Output line: T

Input line: Tell me whether Ratio IC50 is at least 1 here: N#Cc1c2c(c(O)c3ncc(Cc4cccc(Cl)c4F)cc13)C(=O)N1CCCN1C2
Output line: T

Input line: Tell me whether Ratio IC50 is at least 1 here: O=C(NCc1ccc(F)cc1)c1cn2c(c(O)c1=O)C(=O)N1CCCO[C@H]1C2
Output line: T

Input line: Tell me whether Ratio IC50 is at least 1 here: NC(=O)c1c2c(c(O)c3ncc(Cc4cccc(Cl)c4F)cc13)C(=O)N1CCCC[C@@H]21
Output line: F
